# Tested on: SK-MEL-2 melanoma
# Assay info: NCI tumour cell line growth inhibition, 48 h
Exercise: state measured TGI for each of the molecules provided.

Query (molecule): Nc1onc2c1Cc1c(noc1N)-c1ccccc1-2 ; field requested: TGI > 100 µM

Cc1cccc(C)c1NC(=O)C(=O)Nn1c(NN)nc2ccccc2c1=O , same question. > 100 µM

O=C1C(Cl)=C(NCc2ccco2)C(=O)c2ccccc21 , same question. > 100 µM

----------
# Test system: SN12C renal
# Assay info: NCI tumour cell line growth inhibition, 48 h
Exercise: state measured TGI for each of the compounds provided.

Query (compound): Cc1ccc2c(c1)-c1nc(N)c(C#N)c(-c3ccccc3)c1CCS2(=O)=O ; field requested: TGI > 100 µM

CN(C)CCNC(=O)c1ccc(NC(=O)c2nc([N+](=O)[O-])cn2C)cc1 , same question. > 100 µM

COc1ccccc1C(=O)c1c(NCc2ccccc2)c(=O)c1=O , same question. > 100 µM

----------
Exercise: state measured TGI for each of the compounds provided.
# Test system: COLO 205 colon
# Assay info: NCI tumour cell line growth inhibition, 48 h

Form entry - test system: COLO 205 colon; read-out: TGI; compound: Cn1cc(C(=O)C[n+]2ccccc2)c2ccccc21 > 100 µM

CCOC(=O)C(SCCO)C(C(=O)OCC)n1ccc(=O)[nH]c1=O (stereo not given) , same question. > 59.3 µM

COC(=O)C1(C)C=CC(=O)C2(C)C1C(O)C1OC3CC(c4ccoc4)C(C)=C3C1(C)C2CC(=O)O (stereo not given) , same question. > 100 µM

CCC(=O)Nc1ccc(N2C(=O)C(Cl)C2c2ccc(SC)cc2)cc1 (stereo not given) , same question. > 100 µM

N#Cc1cnc(N)nc1NCC1(CO)CC(CCc2ccccc2)C1 (stereo not given) , same question. > 100 µM

----------
# System: COLO 205 colon
# Assay info: NCI tumour cell line growth inhibition, 48 h
Exercise: state measured GI50 for each of the compounds provided.

Query (compound): O=C1C(=O)c2cccnc2-c2ncccc21 ; field requested: GI50 1030 nM

COc1cc(C2CC(c3ccc(Nc4ccnc5cc(Cl)ccc45)cc3)=NN2c2ccc(Cl)cc2)cc(OC)c1OC (centres undefined) , same question. 3280 nM

Cc1ccc(Cl)cc1NC(=O)c1sc2nc3c(cc2c1N)C(=O)CCC3 , same question. 4410 nM

C=C1C(=O)O[C@H]2[C@H]1CC/C(Cn1cc(-c3ccccc3C(F)(F)F)nn1)=C\CC[C@@]1(C)O[C@@H]21 , same question. 1980 nM

----------
# Tested on: PC-3 prostate
# Assay info: NCI tumour cell line growth inhibition, 48 h
Exercise: state measured TGI for each of the compounds provided.
Write it as a number; the unit µM goes unstated.

Form entry - test system: PC-3 prostate; read-out: TGI; compound: O=C1C(Cl)=C(Nc2ccc(S(=O)(=O)Nc3ccccn3)cc2)C(=O)c2ccccc21 27

O=C(/C=C/c1ccc(C(F)(F)F)cc1)c1ccc(Nc2nc(NCCO)nc(Nc3ccc(Cl)cc3)n2)cc1 , same question. 15

CN(C)c1ccc(/C=C/c2cc[n+](C)c(/C=C/c3ccc(N(C)C)cc3)c2)cc1 , same question. 1.26

----------
# Test system: OVCAR-3 ovarian
# Assay info: NCI tumour cell line growth inhibition, 48 h; in the data active = GI50 below about 0.43 µM; inactive = the rest
Output constraint: value belongs to true (1) = active, false (0) = inactive

Hey, what did the test say about CN(C)c1ccc(/C=C/c2cc[n+](C)c(/C=C/c3ccc(N(C)C)cc3)c2)cc1 ? true (1)

O=C1C(Cl)=C(NCc2ccco2)C(=O)c2ccccc21 , same question. false (0)

COc1cc(-c2nc(SCCC(C)C)nc(Nc3ccc(S(N)(=O)=O)cc3)c2C#N)cc(OC)c1OC , same question. false (0)

----------
# Tested on: RXF 393 renal
# Assay info: NCI tumour cell line growth inhibition, 48 h
Readout name: TGI

Query (compound): CCN1CCC(O)(c2ccc(Cl)cc2)C(C(=O)c2ccc(Cl)cc2)C1 (stereo not drawn) ; field requested: TGI > 100 µM

N#Cc1cnc(N)nc1NCC1(CO)CC(CCc2ccccc2)C1 (stereo not drawn) , same question. > 100 µM

NC(N)=NS(=O)(=O)c1ccc(NCCc2c3ccccc3nc3ccccc23)cc1 , same question. > 100 µM

----------
# Tested on: SK-MEL-2 melanoma
# Assay info: NCI tumour cell line growth inhibition, 48 h
Exercise: state measured TGI for each of the molecules provided.

Query (molecule): Cc1cc(S(=O)(=O)Nc2nc3ccccc3c(=O)n2N)c(S)cc1Cl ; field requested: TGI > 100 µM

CCN1CCC(O)(c2ccc(Cl)cc2)C(C(=O)c2ccc(Cl)cc2)C1 (centres undefined) , same question. > 100 µM

CCN(CC)c1ccc(C(=O)c2ccc(N(CC)CC)cc2)cc1 , same question. 14.9 µM

CN(C)c1ccc(/C=c2\sc3nc4ccccc4n3c2=O)cc1 , same question. > 100 µM

Cc1cn(CC2=NCC(C)N2)c(=O)[nH]c1=O (centres undefined) , same question. > 100 µM

COc1ccc(/C=C2\CCC(C)C3=C2N=c2s/c(=C/c4cccc(Br)c4)c(=O)n2C3c2ccc(OC)c(OC)c2)cc1OC (centres undefined) , same question. > 100 µM

COI1NC(=O)c2ccccc21 , same question. > 100 µM

CC(C)=CC1=C2C3=C(C(=O)C4(O)Oc5c(C)c6c7c(c5OC24C)[C@@H](C)CC[C@@H]7[C@@H](C)C[C@H]6C=C(C)C)C(C)CCC3C(C)C1 (some centres undefined) , same question. > 100 µM

O=C1C[C@@H]2/C(=C(O)\C=C\c3ccccc3)C(=O)C=C[C@@H]2O1 , same question. 3.56 µM

O=C1C(=O)c2cccnc2-c2ncccc21 , same question. 2.35 µM

CCCCn1c2c(n(CCCC)c1=S)-c1c(n(CCCC)c(=S)n1CCCC)SSc1c(n(CCCC)c(=S)n1CCCC)-c1c(n(CCCC)c(=S)n1CCCC)SSc1c(n(CCCC)c(=S)n1CCCC)-c1c(n(CCCC)c(=S)n1CCCC)SS2 , same question. 29.3 µM

N#Cc1cccc(/C=N/N=C(\N)NO)c1 , same question. > 100 µM

COC(C)(C)C/C=C/C(C)=C/C=C/C(C)=C\C=C\C(C)=C\C=C\C=C(C)\C=C\C=C(C)\C=C\C=C(C)\C=C\CC(C)(C)OC , same question. > 150 µg/mL

CN(C)CC/[N+]([O-])=C(/c1ccccc1)C12CC3CC(CC(C3)C1)C2 , same question. 34.9 µM

C=C(c1ccccc1)[C@@]1(O)CC[C@@H]1N(CC#N)Cc1ccccc1 , same question. 53.1 µM

CO/N=C(\C)CCC#Cc1ccccc1C(=O)OC , same question. > 10 µM

O=Cc1c(O)c(C(=O)Nc2ccc3[nH]c(=O)[nH]c3c2)cc2ccccc12 , same question. > 100 µM

CN(Cc1cc(C(C)(C)C)cc(Br)c1O)Cc1cc(C(C)(C)C)cc(Br)c1O , same question. 5.86 µM

O=C(O)CN1C(=O)C(Cc2ccc(O)cc2)N=C(c2cccc(O)c2)c2ccccc21 (centres undefined) , same question. > 100 µM

O=C(O)C1CC(O)CN1 (centres undefined) , same question. > 100 µM

Oc1ccc2c(c1)-c1c(c3ccccc3n1CCN1CCOCC1)CC2 , same question. 69.4 µM

COc1cc2c(cc1OC)C13CCN4CC5CCOC6CC(=O)N2C1C6C5CC43 (centres undefined) , same question. > 100 µM

CCC(C#N)NCc1cccc(CNC(C#N)CC)c1 (centres undefined) , same question. > 100 µM

CCOC(=O)c1c(N2CCOCC2)[nH]c(=O)c(C(c2ccco2)c2c(O)c(C(=O)OCC)c(N3CCOCC3)[nH]c2=O)c1O , same question. > 100 µM

CCNC(=O)O[C@H]1CN[C@H](C#Cc2cc3ncnc(Nc4ccc(OCc5cccc(F)c5)c(Cl)c4)c3s2)C1 , same question. 24.9 µM

CC(C)OP(=O)(NC(=S)c1ccccc1)OC(C)C , same question. > 100 µM

O=C1c2ccc(O)c(O)c2C(=O)c2c(O)ccc(O)c21 , same question. 66.5 µM

CC(=O)C1=C(O)CC2CC3c4[nH]c5ccccc5c4CCN3CC2C1 (centres undefined) , same question. > 100 µM

CCCC(=O)OC1C(CO)OC(n2cc(F)c(=O)[nH]c2=O)C1F (centres undefined) , same question. > 100 µM

----------
Exercise: state measured TGI for each of the molecules provided.
# System: UACC-62 melanoma
# Assay info: NCI tumour cell line growth inhibition, 48 h

Query (molecule): O=C(OC[C@H]1O[C@H](OC(=O)c2cc(O)c(O)c(OC(=O)c3cc(O)c(O)c(O)c3)c2)[C@H](OC(=O)c2cc(O)c(O)c(OC(=O)c3cc(O)c(O)c(O)c3)c2)[C@@H](OC(=O)c2cc(O)c(O)c(OC(=O)c3cc(O)c(O)c(O)c3)c2)[C@@H]1OC(=O)c1cc(O)c(O)c(OC(=O)c2cc(O)c(O)c(O)c2)c1)c1cc(O)c(O)c(OC(=O)c2cc(O)c(O)c(O)c2)c1 ; field requested: TGI > 25 µM

Cc1nc2c(=O)n(C)ncc2[nH]1 , same question. > 100 µM

O=c1c2cc(Cl)ccc2sc2cccc(Cl)c12 , same question. > 100 µM

Cc1cn(CC2=NCC(C)N2)c(=O)[nH]c1=O (stereo not drawn) , same question. > 100 µM

CN1C(=O)C2C(C1=O)C1(O)c3ccccc3C2(N)c2ccccc21 (stereo not drawn) , same question. > 100 µM

CN(C)CCNC(=O)c1ccc(NC(=O)c2nc([N+](=O)[O-])cn2C)cc1 , same question. > 100 µM

CCOC(=O)c1ccc(NCC#CCN2CCCCC2)cc1 , same question. > 100 µM

COc1ccccc1C(=O)c1c(NCc2ccccc2)c(=O)c1=O , same question. > 100 µM

N#Cc1cnc(N)nc1NCC1(CO)CC(CCc2ccccc2)C1 (stereo not drawn) , same question. > 100 µM

COC(=O)c1c2cccccc-2c(Cc2c3cccccc-3c(C(=O)OC)c2O)c1O , same question. > 100 µM

CC(C)(C)c1cc(O)ccc1O , same question. > 100 µM

C=CCc1cccc2cc(C(=O)Nc3ccccn3)c(=N)oc12 , same question. > 100 µM

CCC(C#N)NCc1cccc(CNC(C#N)CC)c1 (stereo not drawn) , same question. > 100 µM

COc1ccc(OCC(=O)O)c(C(=O)CCC(=O)O)c1 , same question. > 10 µM

Cc1cc2c([nH]c3ccccc32)c2c1OC(C)(C)C1C3CC(C)(C)Oc4c(C)cc5c6ccccc6n(c5c43)C21 (stereo not drawn) , same question. > 100 µM

NC(N)=Nc1ccc(CC(N)C(=O)O)cc1 (stereo not drawn) , same question. > 12.5 µM

O=C(O)C1CC(O)CN1 (stereo not drawn) , same question. > 100 µM

C[C@@H]1CC[C@@H]2[C@@H](C1)O[C@@H]([C@H](C)OCc1ccccc1)SC2(C)C , same question. > 100 µM

O=C1c2ccccc2S(=O)(=O)c2cc(-c3nn[nH]n3)ccc21 , same question. > 100 µM

CCOC(=O)CCC(NC(=O)c1ccc(OCc2ccc3nc(-c4ccccc4)c(Cl)nc3c2)cc1)C(=O)OCC (stereo not drawn) , same question. > 31.6 µM

O=C1c2ccccc2C(=O)N1CC(O)COc1cccc2ccccc12 (stereo not drawn) , same question. > 100 µM

COC(=O)Nc1nc2ccc(Br)cc2[nH]1 , same question. > 100 µM

CC1(C)OCC=CCO1 , same question. > 100 µM
